In this section we review reported IC50 values for a set of compounds.
# System: human whole blood
# assay-notes: LPS-Stimulation of Human Whole Blood, TNF-α release
# Assay type: cell-based
# assay-conditions: LPS 100 ng/ml, 6 hrs, read-out: Inhibitor activity versus human whole blood TNFα release

INSERT INTO measurements (compound, assay_system, observed_measurement) VALUES
  ('CC(C)C[C@H](NC/C=C/c1ccc(-c2cc(C(N)=O)c(NC(N)=O)s2)cc1)C(=O)OC1CCCC1 [Example 29]', 'human whole blood', '< 1 µM'),
  ('CC(C)C[C@H](NCc1cccc(-c2cc(C(N)=O)c(NC(N)=O)s2)c1)C(=O)OC1CCCC1 [Example 8]', 'human whole blood', '1 to 5 µM'),
  ('CC(C)C[C@H](NCCc1cc(-c2cc(C(N)=O)c(NC(N)=O)s2)ccc1Cl)C(=O)OC1CCCC1 [Example 24]', 'human whole blood', '> 5 µM');

Return IC50 (reported value) for this compound: CC(C)(C)OC(=O)[C@@H](NC/C=C/c1ccc(-c2cc(C(N)=O)c(NC(N)=O)s2)cc1)C1CCCCC1 [Example 45]
> 5 µM

###

# assay-system: IKBKB (IKKβ) (Homo sapiens)
# Sequence (O14920 1-756): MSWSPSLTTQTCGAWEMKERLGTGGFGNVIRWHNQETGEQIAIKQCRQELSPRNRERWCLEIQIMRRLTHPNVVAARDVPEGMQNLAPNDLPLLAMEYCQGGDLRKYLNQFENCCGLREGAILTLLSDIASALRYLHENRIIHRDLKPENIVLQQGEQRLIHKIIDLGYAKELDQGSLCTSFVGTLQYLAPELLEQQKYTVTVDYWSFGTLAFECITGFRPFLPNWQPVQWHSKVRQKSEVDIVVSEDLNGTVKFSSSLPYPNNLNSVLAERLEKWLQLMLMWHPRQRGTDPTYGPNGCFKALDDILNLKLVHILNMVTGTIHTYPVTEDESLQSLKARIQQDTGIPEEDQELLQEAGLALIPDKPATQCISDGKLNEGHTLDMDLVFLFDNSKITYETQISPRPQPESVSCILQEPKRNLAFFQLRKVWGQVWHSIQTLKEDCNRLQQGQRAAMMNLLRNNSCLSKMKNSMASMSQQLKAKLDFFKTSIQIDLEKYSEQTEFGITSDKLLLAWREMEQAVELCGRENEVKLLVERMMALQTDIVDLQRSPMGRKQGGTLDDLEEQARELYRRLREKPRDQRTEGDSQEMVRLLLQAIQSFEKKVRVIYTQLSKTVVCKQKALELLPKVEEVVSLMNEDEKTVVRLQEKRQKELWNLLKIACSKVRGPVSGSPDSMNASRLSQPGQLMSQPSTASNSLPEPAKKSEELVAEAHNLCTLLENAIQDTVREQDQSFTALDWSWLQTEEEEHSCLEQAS
observation-type: IC50

Reference set, count: 10
INSERT INTO measurements (mol_smiles, observation_type, observed_measurement) VALUES
  ('CC(C)C[C@H](NC/C=C/c1cccc(-c2cc(C(N)=O)c(NC(N)=O)s2)c1)C(=O)O', 'IC50', '< 1000 nM'),
  ('CC(C)C[C@H](NC/C=C/c1c(F)cc(-c2cc(C(N)=O)c(NC(N)=O)s2)cc1F)C(=O)OC1CCCC1', 'IC50', '> 5000 nM'),
  ('NC(=O)Nc1sc(-c2ccc(CN[C@@H](Cc3ccccc3)C(=O)OC3CCCC3)cc2)cc1C(N)=O', 'IC50', '> 5000 nM'),
  ('CC(C)C[C@H](NC/C=C/c1cc(F)c(-c2cc(C(N)=O)c(NC(N)=O)s2)cc1F)C(=O)O', 'IC50', '< 1000 nM'),
  ('Cc1cc(/C=C/CN[C@@H](CC(C)C)C(=O)O)ccc1-c1cc(C(N)=O)c(NC(N)=O)s1', 'IC50', '< 1000 nM'),
  ('Cc1cc(-c2cc(C(N)=O)c(NC(N)=O)s2)ccc1CN[C@@H](CC(C)C)C(=O)O', 'IC50', '< 1000 nM'),
  ('C[C@@H](O)[C@H](NCc1cccc(-c2cc(C(N)=O)c(NC(N)=O)s2)c1)C(=O)OC1CCCC1', 'IC50', '< 1000 nM'),
  ('Cc1cc(-c2cc(C(N)=O)c(NC(N)=O)s2)cc(C)c1/C=C/CN[C@@H](CC(C)C)C(=O)O', 'IC50', '< 1000 nM'),
  ('CC(C)C[C@H](NCCc1cccc(-c2cc(C(N)=O)c(NC(N)=O)s2)c1)C(=O)O', 'IC50', '< 1000 nM'),
  ('CC(C)C[C@H](NC/C=C/c1ccc(-c2cc(C(N)=O)c(NC(N)=O)s2)cc1)C(=O)O', 'IC50', '< 1000 nM');

As a next step, examine the molecule that follows.
Give IC50 for CC(C)C[C@H](NCCc1ccc(-c2cc(C(N)=O)c(NC(N)=O)s2)c(Cl)c1)C(=O)OC1CCCC1
1000 to 5000 nM
